test system: rabbit serum obtained by immunizing a rabbit with the SARS-CoV strain Frankfurt 1; type: binding; set-up: unit not given here
Attribute measured: Binding of a rabbit serum to linear peptides
Give the figure only, with no unit attached.

sequence_text=CWHTHNYDYCIPYNS target_desc="rabbit serum obtained by immunizing a rabbit with the SARS-CoV strain Frankfurt 1" measured=0.1

Entry under test: "VKNLNSSEGVPDLLV" . Its Binding of a rabbit serum to linear peptides was 0.3

According to the records, this sequence "GYFTEVYYQLESTQI" displays Binding of a rabbit serum to linear peptides of 0.1

The recorded Binding of a rabbit serum to linear peptides for entry "VILRIGTQVLKTMSL" equals 0.3

# sequence "LLVAAGMEAQFLYLY" ; its Binding of a rabbit serum to linear peptides = 0.2

Binding of a rabbit serum to linear peptides in this record for "TEVYYQLESTQITTD" : 0.1

Entry "MSRRRLLACLCKHKK" , Binding of a rabbit serum to linear peptides reported as 0.2
